- Organism: Rattus norvegicus
- test-protocol: Effect on pressor activity in rat
- Assay type: functional
endpoint: Activity (U/mg)
Number in U/mg, nothing else.

stdin: Can you look up the measured Activity of CC[C@H](C)[C@@H]1NC(=O)[C@H](Cc2ccc(O)cc2)NC(=O)[C@@H](N)CSSC[C@@H](C(=O)N2CCC[C@H]2C(=O)N[C@@H](CC(C)C)C(=O)NCC(N)=O)NC(=O)[C@H](CC(N)=O)NC(=O)[C@H](CCC(N)=O)NC1=O for me?
stdout: 3.1

---

Listing: Activity of selected molecules
- Species on record: Rattus norvegicus
- test-protocol: Effect on pressor activity in rat
- Format: functional
Write the value in U/mg as a bare number.

Below: 2 molecules and their reported Activity.
stdin: What value of Activity has been reported for the following molecule? CC[C@H](C)[C@@H]1NC(=O)[C@H](Cc2ccc(O)cc2)NC(=O)CCSSC[C@@H](C(=O)N2CSC[C@H]2C(=O)N[C@@H](CC(C)C)C(=O)NCC(N)=O)NC(=O)[C@H](CC(N)=O)NC(=O)[C@H](CCC(N)=O)NC1=O
stdout: 1.69

stdin: Which Activity is listed for CC[C@H](C)[C@@H]1NC(=O)[C@H](Cc2ccc(O)cc2)NC(=O)[C@@H](N)CSSC[C@@H](C(=O)N2CSC[C@H]2C(=O)N[C@@H](CC(C)C)C(=O)NCC(N)=O)NC(=O)[C@H](CC(N)=O)NC(=O)[C@H](CCC(N)=O)NC1=O ?
stdout: 3.46

Moving on to another molecule below.
stdin: Any idea what Activity was measured for CC[C@H](C)[C@@H]1NC(=O)[C@H](Cc2ccc(O)cc2)NC(=O)CCSSC[C@@H](C(=O)N2CCC[C@H]2C(=O)N[C@@H](CC(C)C)C(=O)NCC(N)=O)NC(=O)[C@H](CC(N)=O)NC(=O)[C@H](CCC(N)=O)NC1=O ?
stdout: 1.44
